Please respond with reported pIC50 for every item in the list.
molecular target: GST-Flk1 (Mus musculus, UniProt P35918); construct: GST-Flk1cd purified from sf9 recombinant baculovirus transformation; assay: GST-FLK-1 bioassay (bio flkGST)
Sequence (P35918 784-1345 limits assumed): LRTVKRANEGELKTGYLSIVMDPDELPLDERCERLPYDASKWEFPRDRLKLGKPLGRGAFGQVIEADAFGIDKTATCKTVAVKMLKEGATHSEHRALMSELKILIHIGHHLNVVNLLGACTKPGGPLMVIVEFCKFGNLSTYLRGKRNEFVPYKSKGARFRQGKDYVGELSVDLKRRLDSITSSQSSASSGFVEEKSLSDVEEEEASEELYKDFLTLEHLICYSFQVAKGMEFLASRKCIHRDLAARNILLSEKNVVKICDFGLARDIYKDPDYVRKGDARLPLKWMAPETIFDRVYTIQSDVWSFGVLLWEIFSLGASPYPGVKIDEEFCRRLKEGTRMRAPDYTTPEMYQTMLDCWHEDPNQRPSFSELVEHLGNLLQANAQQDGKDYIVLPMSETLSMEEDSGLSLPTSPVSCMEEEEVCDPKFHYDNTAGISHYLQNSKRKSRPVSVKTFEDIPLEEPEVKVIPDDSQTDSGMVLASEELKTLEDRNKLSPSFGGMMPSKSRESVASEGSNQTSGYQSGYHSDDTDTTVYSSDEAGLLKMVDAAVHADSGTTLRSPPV
# pIC50 = -log10(concentration in molar units)

Return pIC50 (reported value) for this compound: CCN(CC)CCNC(=O)c1c(C)[nH]c(/C=C2\C(=O)Nc3ccc(S(=O)(=O)N(C)C)cc32)c1C 5.49

Return pIC50 (reported value) for this compound: Cc1[nH]c(/C=C2\C(=O)Nc3ccc(S(=O)(=O)Nc4cccnc4)cc32)c(C)c1C(=O)NCCN1CCCC1 5.86

Return pIC50 (reported value) for this compound: CCN(CC)CCNC(=O)c1ccc(/C=C2\C(=O)Nc3ccc(Br)cc32)[nH]1 4.92

Return pIC50 (reported value) for this compound: CCN(CC)CCNC(=O)c1c(C)[nH]c(/C=C2\C(=O)Nc3cc(-c4cccnc4)ccc32)c1C 6.68

Return pIC50 (reported value) for this compound: CCN(CC)CCCNC(=O)c1c(C)[nH]c(/C=C2\C(=O)Nc3cc(-c4ccccc4)ccc32)c1C 5.94

Return pIC50 (reported value) for this compound: Cc1cc(C(=O)O)[nH]c1/C=C1\C(=O)Nc2ccccc21 4.24

Return pIC50 (reported value) for this compound: Cc1cc(C(=O)O)[nH]c1/C=C1\C(=O)Nc2ccc(Cl)cc21 5.08

Return pIC50 (reported value) for this compound: CCN(CC)CCCNC(=O)c1c(C)[nH]c(/C=C2\C(=O)Nc3cccc(C(=O)Nc4ccc(OC)c(Cl)c4)c32)c1C 6.52

Return pIC50 (reported value) for this compound: CN(C)CCNC(=O)c1[nH]c(/C=C2\C(=O)Nc3ccc(Br)cc32)c2c1CCCC2 5.11

Return pIC50 (reported value) for this compound: Cc1[nH]c(/C=C2\C(=O)Nc3ccc(Br)cc32)c(-c2ccccc2)c1C(=O)NCCN1CCCC1 7.00

Return pIC50 (reported value) for this compound: Cc1[nH]c(/C=C2\C(=O)Nc3ccc(S(=O)(=O)N(C)C)cc32)c(C)c1C(=O)NCCN1CCCC1 5.69

Return pIC50 (reported value) for this compound: Cc1[nH]c(/C=C2\C(=O)Nc3cc(-c4cccc(C(C)C)c4)ccc32)c(C)c1C(=O)NCCN1CCCC1 5.83

Return pIC50 (reported value) for this compound: COC(=O)c1cc(C)c(/C=C2\C(=O)Nc3ccccc32)[nH]1 5.01

Return pIC50 (reported value) for this compound: CC(C)c1[nH]c(/C=C2\C(=O)Nc3ccc(Br)cc32)c(-c2ccccc2)c1C(=O)NCCCN1CCN(C)CC1 5.35

Return pIC50 (reported value) for this compound: CCN(CC)CCNC(=O)c1c(C)[nH]c(/C=C2\C(=O)Nc3cc(-c4cc(Cl)cc(Cl)c4)ccc32)c1C 5.10

Return pIC50 (reported value) for this compound: Cc1[nH]c(/C=C2\C(=O)Nc3cc(-c4cccnc4)ccc32)c(C)c1C(=O)NCCCN(C)C 6.43

Return pIC50 (reported value) for this compound: CCN(CC)CCCNC(=O)c1[nH]c(/C=C2\C(=O)Nc3ccc(Br)cc32)c(C(=O)c2ccccc2)c1C 5.14

Return pIC50 (reported value) for this compound: Cc1c(C(=O)NCCCN2CCCC2)[nH]c(/C=C2\C(=O)Nc3ccc(F)cc32)c1C(=O)c1ccccc1 5.35

Return pIC50 (reported value) for this compound: CCN(CC)CCNC(=O)c1c(C)[nH]c(/C=C2\C(=O)Nc3ccc(-c4ccccc4)cc32)c1C 5.63

Return pIC50 (reported value) for this compound: CCc1ccc(-c2ccc3c(c2)NC(=O)/C3=C\c2[nH]c(C)c(C(=O)NCCN3CCCC3)c2C)cc1 6.31

Return pIC50 (reported value) for this compound: CCN(CC)CCNC(=O)c1c(C(C)C)[nH]c(/C=C2\C(=O)Nc3ccc(Br)cc32)c1-c1ccccc1 5.47

Return pIC50 (reported value) for this compound: Cc1[nH]c(/C=C2\C(=O)Nc3ccc(Br)cc32)c(C)c1C(=O)NCCN(C)C 8.22

Return pIC50 (reported value) for this compound: CCN(CC)CCNC(=O)c1c(C)[nH]c(/C=C2\C(=O)Nc3cc(C(=O)O)ccc32)c1C 6.68

Return pIC50 (reported value) for this compound: CCN(CC)CCCNC(=O)c1[nH]c(/C=C2\C(=O)Nc3ccc(Br)cc32)c2c1CCCC2 5.57

Return pIC50 (reported value) for this compound: COc1ccc2c(c1)NC(=O)/C2=C\c1[nH]c(C(=O)NCCCN2CCCC2)c(C)c1C(=O)c1ccccc1 4.80

Return pIC50 (reported value) for this compound: Cc1cc(C(=O)NCCCN2CCCC2)[nH]c1/C=C1\C(=O)Nc2ccc(Br)cc21 5.39

Return pIC50 (reported value) for this compound: CCN(CC)CCCNC(=O)c1c(C(C)C)[nH]c(/C=C2\C(=O)Nc3ccc(Br)cc32)c1-c1ccccc1 6.66
